testMethodNotes: inhibition of 3D7 malaria parasite growth – strain 3D7 (AID 2306);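 note: 0% = DMSO wells and 100% = chloroquine plus artemisinin control wells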
conditionParameters: P. falciparum 3D7 erythrocytic growth, LDH absorbance, 72 h; at 2 µM; active compounds read high
Activity calls are given as the source filed them. The rule behind the calls is not given here.
observable: growth inhibition

# compound, observable, observedResult
records = [
    ("O=C(NCc1ccccc1)NC(CCCN1CCC(Oc2cccc(Cl)c2)CC1)c1ccc(Cl)c(Cl)c1 (centres undefined)", "growth inhibition", "81% (active)"),
    ("O=C(Nc1cccc(C(F)(F)F)c1)Nc1ccc(Cl)c(C(F)(F)F)c1", "growth inhibition", "99% (active)"),
    ("Cc1cccc2[nH]c(-c3ccc(-c4cccc(NC(=O)COc5ccccc5C(N)=O)c4)s3)nc12", "growth inhibition", "99% (active)"),
    ("CCn1cnc2c(N3CCCCS3(=O)=O)cc(C(=O)N[C@@H](Cc3ccccc3)[C@H](O)CNC3CCOCC3)cc21", "growth inhibition", "99% (active)"),
    ("CC(C)c1ccc(NC(=O)c2ccc(C(=O)NCC3CCN(CC4CCCCC4)CC3)cc2)cc1", "growth inhibition", "92% (active)"),
    ("CCN(CCCN1CCCCC1)c1nccc(Nc2ccc(Cl)cc2)n1", "growth inhibition", "89% (active)"),
    ("CCOc1ccnc(=O)[nH]1", "growth inhibition", "97% (active)"),
    ("Cc1cccc(C(=O)Nc2ccnc(N3CCC(N(C)Cc4cccc(O)c4)CC3)c2)c1", "growth inhibition", "95% (active)"),
    ("Cc1cccc2[nH]c(-c3ccc(-c4cccc(NC(=O)Nc5ccsc5)c4)cc3)nc12", "growth inhibition", "101% (active)"),
    ("Cc1cc(NN=Cc2ccc(Cl)cc2)c2cc(F)ccc2n1", "growth inhibition", "101% (active)"),
    ("CC(C)N1CCN(C(CN2CCN(CCCOc3cccc(F)c3)CC2)c2ccc(F)cc2)CC1 (centres undefined)", "growth inhibition", "92% (active)"),
    ("Cc1c(C(=O)[C@@H]2C[C@H]2CN2CCC(N3CCCCC3)CC2)sc2ccccc12", "growth inhibition", "94% (active)"),
    ("COc1ccc2nccc([C@@H](O)CN3CCC(NCc4nc5c(OCc6ccccc6)cccc5[nH]4)CC3)c2c1", "growth inhibition", "101% (active)"),
    ("O=C(c1cc(-c2ccco2)[nH]n1)N1CCN(S(=O)(=O)c2ccc(Cl)cc2)CC1", "growth inhibition", "96% (active)"),
    ("CN1CCCN(Cc2ccc(-c3cccc(NC(=O)c4cccc(C#N)c4)c3)cc2)CC1", "growth inhibition", "101% (active)"),
    ("COc1ccc2nccc([C@@H](O)CN3CCC(NCc4cc5cc(Cl)ccc5[nH]4)CC3)c2c1", "growth inhibition", "99% (active)"),
    ("O=C(NCc1ccc(Cl)c(Cl)c1)c1ccc(-c2nc3ccc(F)cc3[nH]2)cc1", "growth inhibition", "93% (active)"),
    ("CC(C)[C@H](NC(=O)c1ccc(O)c(-c2cccc(C(F)(F)F)c2)c1)C(=O)NCCN1CCCCC1", "growth inhibition", "99% (active)"),
    ("O=C(Nc1cccc(C(F)(F)F)c1)c1cccc2[nH]c(C(F)(F)F)nc12", "growth inhibition", "100% (active)"),
    ("CCCCCCOc1ccc(C(=O)N[C@H]2CCN(CCCCCNC(=O)/C=C/c3ccc(Cl)c(Cl)c3)C2)cc1", "growth inhibition", "99% (active)"),
    ("COc1cccc(CNC[C@@H](O)[C@H](Cc2ccccc2)NC(=O)c2cc(NC(C)C)cc(N3CCCCS3(=O)=O)c2)c1", "growth inhibition", "89% (active)"),
    ("CN1C(=CC(=O)NC(=O)c2ccccc2)C(C)(C)c2ccccc21", "growth inhibition", "93% (active)"),
    ("Cc1cccc(OC2CCN(c3ncc(C(=O)NCCCN4CCCC4=O)cc3Cl)CC2)c1", "growth inhibition", "96% (active)"),
    ("FC(F)(F)COc1ccc2ccccc2c1CNCCCCCCNCc1c(OCC(F)(F)F)ccc2ccccc12", "growth inhibition", "101% (active)"),
    ("Cc1c(F)cc(C(=O)NC2CC2)cc1-c1ccc2c(c1)c(C)nn2S(=O)(=O)c1cccs1", "growth inhibition", "91% (active)"),
    ("Cc1cc(N(CCO)CCCN2CCCCC2)nc(Nc2ccc(Cl)cc2)n1", "growth inhibition", "100% (active)"),
    ("COc1cc2c(cc1N1C[C@@H](C)N[C@@H](C)C1)N(C(=O)c1ccc(-c3ccc(-c4ncc[nH]4)cc3C)cc1)CC2", "growth inhibition", "98% (active)"),
    ("O=C(NCCCN1CCC(Cc2ccccc2)CC1)c1cc2c(Cl)nc3ccccc3c2s1", "growth inhibition", "98% (active)"),
    ("Cc1noc(=O)c2ccc(NC(=O)C(O)(CSc3ccccc3)CC(C)C)cc12 (centres undefined)", "growth inhibition", "99% (active)"),
    ("c1ccc(CNCCn2c(-c3ccc4c(c3)CCO4)nc3c(N4CCCC4)cccc32)cc1", "growth inhibition", "82% (active)"),
    ("O=c1nc(C=Cc2ccc(Br)cc2)oc2ccccc12", "growth inhibition", "97% (active)"),
    ("c1ccc(CN2CCC(NCc3ccc(-c4cncc5ccccc45)cc3)CC2)cc1", "growth inhibition", "98% (active)"),
    ("Cn1cncc1C(=O)Nc1cccc(-c2ccc(-c3nc4ccccc4[nH]3)s2)c1", "growth inhibition", "102% (active)"),
    ("CN1CCCN(Cc2ccc(-c3ccc(NC(=O)c4ccc(C#N)cc4)cc3)cc2)CC1", "growth inhibition", "91% (active)"),
    ("Cc1ccc(NC(=O)c2c(C)noc2-c2snnc2C)cc1", "growth inhibition", "92% (active)"),
    ("CCCc1cc(N2CCC(N(CC)CC)C2)nc(Nc2ccc(OC)cc2)n1 (centres undefined)", "growth inhibition", "90% (active)"),
    ("NS(=O)(=O)c1cccc(-c2ccc3ncc(N4CCOCC4)nc3c2)c1", "growth inhibition", "96% (active)"),
    ("CC(C(=O)NC1CCN(c2ccnc(Nc3ccc(F)cc3)n2)C1)c1ccc(Cl)cc1 (centres undefined)", "growth inhibition", "95% (active)"),
    ("CCCCCCOc1ccccc1C(=O)NCCOc1ccc(Cl)cc1", "growth inhibition", "84% (active)"),
]
